- ASSAY: Plasma protein binding in vitro
- Assay type: in vitro ADME

{"columns": ["MOLECULE", "fraction unbound"],
 "data": [
  ["O=C1c2ccc3c4c(c(NCCN5CCCC5)cc(c24)C(=O)N1CCCN1CCOCC1)C(=O)N(CCCN1CCOCC1)C3=O [Example C1, reference compound]", 0.65],
  ["O=C1c2cc(-c3ccc(CN4CCCC4)cc3)c3c4c(cc(NCCN5CCCC5)c(c24)C(=O)N1CCCN1CCOCC1)C(=O)N(CCCN1CCOCC1)C3=O [Example 1]", 0.339]
]}

====

- ASSAY: Aqueous solubility of salt
- Format: physicochemical
- MEASUREMENT CONTEXT: water; HCl/formate salt

{"columns": ["COMPOUND", "solubility"],
 "data": [
  ["O=C1c2ccc3c4c(c(NCCN5CCCC5)cc(c24)C(=O)N1CCCN1CCOCC1)C(=O)N(CCCN1CCOCC1)C3=O [Example C1, reference compound]", "> 5000 µg/mL"]
]}

====

- Test system: MIA-PACA2 cells
- ASSAY: MTS cell proliferation assay (CellTiter 96 AQueous One Solution), 96 hr
- Format: cell-based
- MEASUREMENT CONTEXT: Homo sapiens, MIA PaCa-2, 96 hr MTS assay, read-out: Rel IC50
pIC50: −log10 of the molar value.

{"columns": ["STRUCTURE STRING", "pIC50"],
 "data": [
  ["O=C1c2cc(-c3ccc(CN4CCCC4)cc3)c3c4c(cc(NCCN5CCCC5)c(c24)C(=O)N1CCCN1CCOCC1)C(=O)N(CCCN1CCOCC1)C3=O", 10.46],
  ["O=C1c2cc(-c3ccc(CN4CCCCC4)cc3)c3c4c(cc(NCCN5CCCC5)c(c24)C(=O)N1CCCN1CCOCC1)C(=O)N(CCCN1CCOCC1)C3=O", 9.88],
  ["O=C1c2cc(-c3cccc(CN4CCCC4)c3)c3c4c(cc(NCCN5CCCC5)c(c24)C(=O)N1CCCN1CCOCC1)C(=O)N(CCCN1CCOCC1)C3=O", 9.55],
  ["O=C1c2cc(-c3ccc(CN4CCCCCC4)cc3)c3c4c(cc(NCCN5CCCC5)c(c24)C(=O)N1CCCN1CCOCC1)C(=O)N(CCCN1CCOCC1)C3=O", 9.93],
  ["O=C1c2cc(-c3ccc(CN4CCOCC4)cc3)c3c4c(cc(NCCN5CCCC5)c(c24)C(=O)N1CCCN1CCOCC1)C(=O)N(CCCN1CCOCC1)C3=O", 9.73]
]}

====

- ASSAY: In vitro blood/plasma partitioning
- Type: in vitro ADME
- MEASUREMENT CONTEXT: blood and plasma
Parameter: blood plasma ratio. Scope: all listed entries.

{"columns": ["MOLECULE", "blood plasma ratio"],
 "data": [
  ["O=C1c2ccc3c4c(c(NCCN5CCCC5)cc(c24)C(=O)N1CCCN1CCOCC1)C(=O)N(CCCN1CCOCC1)C3=O [Example C1, reference compound]", 10.9],
  ["O=C1c2cc(-c3ccc(CN4CCCC4)cc3)c3c4c(cc(NCCN5CCCC5)c(c24)C(=O)N1CCCN1CCOCC1)C(=O)N(CCCN1CCOCC1)C3=O", 6.1]
]}

====

- Test system: MIA-PACA2 cells
- ASSAY: MTS cell proliferation assay (CellTiter 96 AQueous One Solution), 96 hr
- Assay type: cell-based
- MEASUREMENT CONTEXT: Homo sapiens, MIA PaCa-2, 96 hr MTS assay, read-out: Rel IC50

{"columns": ["COMPOUND", "IC50 (nM)"],
 "data": [
  ["CN1CCN(Cc2ccc(-c3cc4c5c(c(NCCN6CCCC6)cc6c5c3C(=O)N(CCCN3CCOCC3)C6=O)C(=O)N(CCCN3CCOCC3)C4=O)cc2)CC1 [Example 8]", 0.174],
  ["CCN(CC)Cc1ccc(-c2cc3c4c(c(NCCN5CCCC5)cc5c4c2C(=O)N(CCCN2CCOCC2)C5=O)C(=O)N(CCCN2CCOCC2)C3=O)cc1 [Example 5]", 0.239],
  ["O=C1c2cc(-c3ccc(CNC4CCCC4)cc3)c3c4c(cc(NCCN5CCCC5)c(c24)C(=O)N1CCCN1CCOCC1)C(=O)N(CCCN1CCOCC1)C3=O [Example 6]", 0.099]
]}
